System: MS2 coat protein
Experiment: apparent KD of MS2 coat protein; higher = weaker reporter binding
Conditions: Eterna round: R107; input ligand: theophylline 2 mM
Binary classification by apparent KD of MS2 coat protein, with 0.03 µM as an inclusive lower bound for t; all other cases are f.

input: Hi, just wondering whether GGGCGAGUGGACCGGCGUGCUCCGCUCCGUCGAGGACCGGUACGGCCGCCACUCGACAUGAGGAUCACCCAUGUGCGAGCUCGCG [#1 Exclusion - Tryptophan A Attempt #14 (HarryS)] shows apparent KD of MS2 coat protein of 0.03 µM or higher.
output: t

input: apparent KD of MS2 coat protein >= 0.03 µM for UGUACUAUGUGAAGGAGCGAGAAUCCUACAUGAGGAUCACCCAUGUAACAGCGAAAGCUGACUCAGGUAGGUCGCACAUAGUACU [ArgBS - First try] ?
output: t

input: Tell me whether apparent KD of MS2 coat protein is at least 0.03 µM here: UGGUGUAGGGUAAAUAGGAUUAGUACAGAAGGAGCGCGAAUAAACGCAGGUAGGUCGCUGGAAUAAACAUGAGGAUCACCCAUGU [Same State Arginine A GF 27]
output: f

input: Test whether the sequence UACAUGAGGAUCACCCAUGUGUAACCAGAAGGAGCGUGCGAAAGCACAGGUAGGUCGCUGGUGGGUUUAGGUUUAAUAGGUGUAU [SSAA NP+V+V2 #4 +-Same Structure] records apparent KD of MS2 coat protein of 0.03 µM or higher.
output: t

input: Is it the case that UAGAAACGUACGGCCGCCACUCGGAAUUGGCUCAGACCAUACGUACAUGAGGAUCACCCAUGUUAGAGGACCGGGUAUAAUCUAA [theeternabot_sameState_MS2_Trp_B_46] has apparent KD of MS2 coat protein reaching or exceeding 0.03 µM?
output: t

====

System: MS2 coat protein
Assay: apparent KD of MS2 coat protein; designed switch direction (-1 OFF switch, 1 ON switch): -1; higher = weaker reporter binding
Conditions: input ligand: FMN 200 uM
test.readout: apparent KD of MS2 coat protein (nM)
Answer in nM, number only, no unit symbol.

input: Looking for the measured apparent KD of MS2 coat protein of GGUCAGAUGGUAGGAUAUCCAUAUCGAGUGACCUUUUCAUAACAUGAGGAUCACCCAUGUCGGUGGGAGAAGGGCCGUACGGCG [salish99_ExNG02_R04_017] (Eterna round: R96, puzzle: Exclusion NG 2) , can you help?
output: 120

input: Quick one: apparent KD of MS2 coat protein of GCGCCAUCGUGAGAUGGCGUAUAAACAUGAGGAUCACCCAUGUAGGAUAUCGAUUGCUUUGCAGUCGAGAAGGGCAUUAUAAGU [JL ENG3 3.75] (Eterna round: R96, puzzle: Exclusion NG 3) ?
output: 29.2

input: // apparent KD of MS2 coat protein lookup, key: GGCAAAGUAGGAUAUACAUGAGGAUCACCCAUGUUUCCAGAUGGCGUAGGUCUUCUUUGUAGAAGGGCUAUGCC [Ananinge] (Eterna round: R97, puzzle: Exclusion 3)
output: 20.1

====

Please respond with reported apparent KD of MS2 coat protein for every item in the list.
Tested on: MS2 coat protein
Assay: apparent KD of MS2 coat protein; designed switch direction (-1 OFF switch, 1 ON switch): -1; higher = weaker reporter binding
Details: input ligand: none
// units = nM; emit number, no label

input: Dear colleague, I am looking for the recorded apparent KD of MS2 coat protein of the following sequence: CUGCUGGAGUUUCGCUUUGGUCGUACAUGAGGAUCACCCAUGUAGGAUAUGGUAAAAUUCGCCUGCUAGAAGGAUAGAGUGGUC [salish99_ExNG3_r04_620] (Eterna round: R96, puzzle: Exclusion NG 3)
output: 42.3

input: Sample UCAGGUCGGUAGGAUAUCGACGGGAAAAGCCCACGAGAAGGACUGACAUGAGGAUCACCCAUGUGAGCGUAACC [EX6 B.1] (Eterna round: R97, puzzle: Exclusion 6) — what was its apparent KD of MS2 coat protein?
output: 101

input: GET /values?readout=apparent KD of MS2 coat protein&item= AAGAUACAUGAGGAUCACCCAUGUGAGGAUAUGAGUCAGUCACGGUGACGUGGCUGACUCAGAAGGCACAAAGG [JL-ex1-4.36 salish99 mod] (Eterna round: R97, puzzle: Exclusion 1)
output: 110

input: May I ask what apparent KD of MS2 coat protein has been recorded for UAUUAGCAAGUGAGAUCCCACAUGAGGAUCACCCAUGUGCUCGUCUUAUAAGGUACUGUGACGAUAGUCACGGUACC [Mat - Sensor, turn-off var - Eli Mod - D1] (Eterna round: R97, puzzle: Sensor, turn-off variant 1) ?
output: 49

input: Reported apparent KD of MS2 coat protein, sequence CUUGUGUGAGGAUAUGAAUUGCCUGGACAUACAGGCUCCUGUCAGAAGGCACAUGAGGAUCACCCAUGUGGGCA [Andiriso] (Eterna round: R97, puzzle: Exclusion 4) : ____
output: 411

input: Requested read-out: apparent KD of MS2 coat protein. Entry: GAGUGACAUGAGGAUCACCCAUGUGAGGAUAUCGGACGGACCUAGUUAACUUCCGCCGCGAGAAGGCACAUCGG [Exclusion 1 V23] (Eterna round: R96, puzzle: Exclusion 1)
output: 84

input: Find the recorded apparent KD of MS2 coat protein belonging to GCGUAGUAUGUAGGAUAUCGGUCAGUUUCUGAUCGAGAAGGACAUGAGGAUCACCCAUGUAAAACGCCCGCUUUGUGGGUACGC [JL ENG1 3.59] (Eterna round: R96, puzzle: Exclusion NG 1) and report it.
output: 22.4

input: Please give the measured apparent KD of MS2 coat protein for this sequence: AUCAGUCUAGAGGAUAUGCUGGAUUAAUAUCUGGCAGAAGGCUGGACAUGAGGAUCACCCAUGUAAAUACUACC [Omei Ex6 A4] (Eterna round: R97, puzzle: Exclusion 6)
output: 55

input: For the sequence CAGUACUGAGGAUAUACAUGAGGAUCACCCAUGUGAUUUGGUGCACGCGUACGUGUACGUAGAAGGCAGUACUG [JL 3.27 m5] (Eterna round: R97, puzzle: Exclusion 3) , what apparent KD of MS2 coat protein is on record?
output: 24.2

input: Item under review: UCGUUCCGUGUAGGAUAUUGGCCUUCCUCGGGCCGAGAAGGACAUGAGGAUCACCCAUGUAUGCUAUUAUCGCGCGUGGCGCAC [Design 96] (Eterna round: R96, puzzle: Exclusion NG 1) . Reported apparent KD of MS2 coat protein?
output: 33

====

System: K4 kissing-loop RNA reporter;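 also: bound reporter read as fluorescence of individual clusters on recovered sequencing chips by microscopy, with normalized cluster intensities fitted with a binding model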
Experiment: apparent KD of K4 kissing-loop reporter; higher = weaker reporter binding
Details: Eterna round: R107; input ligand: FMN 200 uM
Please enter Met where apparent KD of K4 kissing-loop reporter is greater than or equal to 200 nM, and Not met where it is lower.

input: Given the entry AAACGCUUGAAUAACAAGCGAAUAAAUUCGCGAGGACCGGUACGGCCGCCACUCGCUAACUGCGAGUGAUGUUCGAUAAUAAAAU [Mat - Mod of OpenEnded 3 - D14] , answer whether its apparent KD of K4 kissing-loop reporter meets or surpasses 200 nM.
output: Not met

input: Item UGUGGAGGAUAUGAUACCAGCAGUGAGAGAGAGGAAGUAUAGUGAUGUUAUAUGAGAGAAUGCCCUUGGCAGCGUAUGUAGUAGG [SSTheophylB.I] with apparent KD of K4 kissing-loop reporter of 200 nM or above?
output: Met

input: In plain terms: is recorded apparent KD of K4 kissing-loop reporter at least 200 nM for AAUAAGGAGUGAUGUUCCAAGUGAUGUUAACGAGGACCGGUACGGCCGCCACUCGAUACGGCCGGAAAAUAAAAUAAAAUAAAAU [Same State - Tryptophan A (Freestyle 1)] ?
output: Not met

input: apparent KD of K4 kissing-loop reporter >= 200 nM for AAUAAACAGUCGGCCGCCACUUCAAUAGACUUAUUAUUGAAUGGUGUAGUUCUUCAGUGAUGUUGAAGGACCGGGACUUUCGCGC [Isesator] ?
output: Not met

input: Reported apparent KD of K4 kissing-loop reporter reaches at least 200 nM for UUUAUUAAGACGGCCGCCACUGAAUUAGAGUGAUGUUCUAAAAUUUUUAAUUUUUUUUUUUUCAGCAGGACCGGGUCAAUUAUUA [JR_SSTryptoB_Sub012] ?
output: Not met

====

System: MS2 coat protein
Test: apparent KD of MS2 coat protein; designed switch direction (-1 OFF switch, 1 ON switch): 1; higher = weaker reporter binding
Conditions: input ligand: microRNA oligo, concentration not stated
Give measured apparent KD of MS2 coat protein for each item. Keep answers brief.
Write the answer as a number in nM, unit excluded.

input: What is its apparent KD of MS2 coat protein for MS2 coat protein? Entry: AGCCGAGACUGAGGAUAUUUGUAUCUACAUGAGGAUCACCCAUGUAGCGUCACGUGGUAGUGAUCGAAGAAGGCAGCUCGGCGC [MOD3 of Omei's SS(NG)2 Cv2] (Eterna round: R96, puzzle: Same State NG 2)
output: 11.2

input: Request: apparent KD of MS2 coat protein, test system MS2 coat protein, entry AAACUAGGCGGUCCAACAUGAGGAUCACCCAUGUAAAAUUCAUAGGAUAUGCCUAUAGAAACAAGGCAGAAGGGUGAGACCGCA [Atsoorle] (Eterna round: R96, puzzle: Same State NG 3)
output: 93.7

input: Under MS2 coat protein: apparent KD of MS2 coat protein value of UAAAAACAUGAGGAUCACCCAUGUGAAAAUAUGGGAGGAUAUACAAAGACGAGAGUCAAAGUAGAAGGCCUAAAAU [Mat - Same State 1 - Eli mod - D88] (Eterna round: R96, puzzle: Same State 1) ?
output: 68.3

input: Form field: apparent KD of MS2 coat protein recorded for GUGCUCGUGUGAGGAUAUGCUUCCGUUUCGGCUGCAGAAGGUACUAUUAUACAUGAGGAUCACCCAUGUCUCUUUUCUUCGGUG [salish99_SSNG1_r04_912] (Eterna round: R96, puzzle: Same State NG 1) with MS2 coat protein (enter value)
output: 22.8

input: Query apparent KD of MS2 coat protein on MS2 coat protein for AGCUAUUACGCAGGAUAUAGGGACAUGAGGAUCACCCAUGUGUACAUGAGUAAAUGUGAUCACGUCUAGAAGGGUGUACUAACA [SameState NG2 #37] (Eterna round: R96, puzzle: Same State NG 2)
output: 326

input: Lab note: need apparent KD of MS2 coat protein with MS2 coat protein for entry GUGGCGGGUUGAGGAUAUUGGUUGCCUAUGUUUUACAUGAGGAUCACCCAUGUGGGUUGCGGUUUCGAGAAGGUAGGUUGCUGG [salish99_SSNG2_r04_047] (Eterna round: R96, puzzle: Same State NG 2) , please look it up.
output: 228

input: I'm curious: which apparent KD of MS2 coat protein was measured for GUGGUCAGACAUGAGGAUCACCCAUGUGGAAUAAAUAAGGAGAAGGAUAUUAAAUAUAGGAUAUAUAAGAAGGUCUGGUUGGUG (Eterna round: R96, puzzle: Same State NG 3) tested on MS2 coat protein?
output: 65.2

input: Which apparent KD of MS2 coat protein is reported with MS2 coat protein for this entry: GCCGGACCGGAAGGAUAUGUUCCCGGUGCAGCGGGAGACAUGAGGAUCACCCAUGUACUAUAACGACAGAAGGUCCAACCAGCG [Eternabot solution 21] (Eterna round: R96, puzzle: Same State NG 2) ?
output: 16.4

input: What is its apparent KD of MS2 coat protein for MS2 coat protein? Entry: GCCGGCUGAUGAGGAUAUGGCACCUUAUUGGUGCCAGAAGGCAUGUCAAUUGACAUGAGGAUCACCCAUGUAUUAUAGUUGGCG [salish99_SSNG1_r04_604] (Eterna round: R96, puzzle: Same State NG 1)
output: 233

This collection of values is drawn from the supplement of paper PMC9170038.
